- Test system: MCF7 cells
- TEST PROTOCOL: MTT cytotoxicity assay, MCF7
- Assay type: cell-based, human
- TEST CONTEXT: read-out: IC50 (cytotoxicity), MCF7, 48 h
ASSAY METRIC: IC50 (µM)
Give a bare numeral; the unit µM is implied.

Retrieve IC50 measured for [Cl][Cd][Cl] [CdCl2, Cadmium chloride, reference compound] and print it. 36

----------
- System: JKT-beta-del cells
- TEST PROTOCOL: MTT cytotoxicity assay, JKT-beta-del
- Format: cell-based, human
- TEST CONTEXT: read-out: IC50 (cytotoxicity), 48 h
ASSAY METRIC: IC50

Using JKT-beta-del cells as the test system, report measured IC50 of [Cl][Cd][Cl] [CdCl2, Cadmium chloride, reference compound] . 30 µM

----------
- System: HPB-ALL cells
- TEST PROTOCOL: MTT cytotoxicity assay, HPB-ALL
- Format: cell-based, human
- TEST CONTEXT: read-out: IC50 (cytotoxicity), 48 h
ASSAY METRIC: IC50 (µM)
Give a bare numeral; the unit µM is implied.

Retrieve IC50 measured for [Cl][Cd][Cl] [CdCl2, Cadmium chloride, reference compound] and print it. 9.8

----------
- Tested on: HUT78 cells
- TEST PROTOCOL: MTT cytotoxicity assay, HUT78
- Type: cell-based, human
- TEST CONTEXT: read-out: IC50 (cytotoxicity), HUT78, 48 h
ASSAY METRIC: pIC50
The scale used: pIC50 is minus the common logarithm of the concentration in molar units.

Using HUT78 cells as the test system, report measured pIC50 of [Cl][Cd][Cl] [CdCl2, Cadmium chloride, reference compound] . 4.60

----------
- Test system: PEER cells
- TEST PROTOCOL: MTT cytotoxicity assay, PEER
- Format: cell-based, human
- TEST CONTEXT: read-out: IC50 (cytotoxicity), 48 h
ASSAY METRIC: pIC50
The scale used: pIC50 is minus the common logarithm of the concentration in molar units.

Retrieve pIC50 measured for [Cl][Cd][Cl] [CdCl2, Cadmium chloride, reference compound] and print it. 4.55

----------
- Tested on: HEK293 cells
- TEST PROTOCOL: MTT cytotoxicity assay, HEK293
- Assay type: cell-based, human
- TEST CONTEXT: read-out: IC50 (cytotoxicity), HEK293, 48 h
ASSAY METRIC: pIC50
The scale used: pIC50 is minus the common logarithm of the concentration in molar units.

Retrieve pIC50 measured for [Cl][Cd][Cl] [CdCl2, Cadmium chloride, reference compound] and print it. 5.72

----------
- Test system: Jurkat cells
- TEST PROTOCOL: MTT cytotoxicity assay, Jurkat
- Format: cell-based, human
- TEST CONTEXT: read-out: IC50 (cytotoxicity), 48 h
ASSAY METRIC: pIC50
The scale used: pIC50 is minus the common logarithm of the concentration in molar units.

Retrieve pIC50 measured for [Cl][Cd][Cl] [CdCl2, Cadmium chloride, reference compound] and print it. 5.19

----------
- Test system: FLC-4 cells
- TEST PROTOCOL: MTT cytotoxicity assay, FLC-4
- Type: cell-based, human
- TEST CONTEXT: read-out: IC50 (cytotoxicity), FLC-4, 48 h
ASSAY METRIC: IC50 (µM)
Give a bare numeral; the unit µM is implied.

Retrieve IC50 measured for [Cl][Cd][Cl] [CdCl2, Cadmium chloride, reference compound] and print it. 106
